# Binding to CT26-TREM2 MFI listing for each entry below
# targetSystem: T1, mouse TREM2 (mouse, UniProt Q99NH8 19-227)
# T1 construct: whole, on cells
# T1 sequence (looked up): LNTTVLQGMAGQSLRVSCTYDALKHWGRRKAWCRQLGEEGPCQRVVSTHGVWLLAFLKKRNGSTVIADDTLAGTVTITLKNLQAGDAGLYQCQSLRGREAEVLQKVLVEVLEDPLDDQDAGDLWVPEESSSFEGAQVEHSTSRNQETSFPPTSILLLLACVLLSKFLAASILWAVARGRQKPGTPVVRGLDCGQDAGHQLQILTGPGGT
# testProtocol: MFI on CT26 cells over-expressing mouse TREM2 and DAP12
# Procedure: Cross-reactivity to mouse TREM2 was assessed using CT26 cells over-expressing mouse TREM2 and DAP12 (Table 23). Eight anti-TREM2 antibodies and both benchmark antibodies were considered cross-reactive to mouse TREM2 (MFI higher than isotype control and fold change of CT26-TREM2 over the CT26 Empty Vector higher than 5). The remaining anti-TREM2 antibodies were considered as being low to not cross-reactive (fold change less than 5). […]
Provide only the numeric value, understood in MFI.

The cases that follow already have their Binding to CT26-TREM2 MFI on record.
[[record]]
binder = "EOS006173 (antibody, V domains shown, also called EOS061730) VH: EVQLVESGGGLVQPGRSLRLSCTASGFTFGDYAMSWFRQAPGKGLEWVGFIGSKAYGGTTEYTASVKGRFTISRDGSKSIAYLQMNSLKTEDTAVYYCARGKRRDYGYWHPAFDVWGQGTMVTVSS VL: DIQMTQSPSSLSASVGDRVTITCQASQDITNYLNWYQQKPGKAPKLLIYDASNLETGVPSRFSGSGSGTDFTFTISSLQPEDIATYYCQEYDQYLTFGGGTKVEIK"
quantitykind = "Binding to CT26-TREM2 MFI"
valuereported = 3940

[[record]]
binder = "EOS006181 (antibody, V domains shown) VH: EVQLVESGGGLVQPGRSLRLSCTASGFTFDDHAMSWFRQAPGKGLEWVGFIGSKAYGGTTEYTASVKGRFTISRDGSKSIAYLQMNSLKTEDTAVYYCARGKRYSYTYWTPAFDVWGQGTMVTVSS VL: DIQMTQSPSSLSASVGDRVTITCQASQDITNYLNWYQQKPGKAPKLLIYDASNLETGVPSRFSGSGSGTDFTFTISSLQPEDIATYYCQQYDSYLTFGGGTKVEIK"
quantitykind = "Binding to CT26-TREM2 MFI"
valuereported = 4690


Please look up its Binding to CT26-TREM2 MFI: EOS006174 (antibody, V domains shown) VH: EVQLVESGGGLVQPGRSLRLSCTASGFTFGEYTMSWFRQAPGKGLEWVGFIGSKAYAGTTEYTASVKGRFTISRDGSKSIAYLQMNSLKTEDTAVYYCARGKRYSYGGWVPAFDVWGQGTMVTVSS VL: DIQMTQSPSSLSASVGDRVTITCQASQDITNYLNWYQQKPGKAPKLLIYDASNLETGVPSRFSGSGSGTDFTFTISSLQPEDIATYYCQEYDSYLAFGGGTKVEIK
10100
